assay: blockers of yeast NLRP3/ASC/caspase-1 reporter – luminescence, uHTS, primary screen (AID 2825); details: Yeast reconstituted NLRP3/ASC/caspase-1, beta-gal luminescence, 24 h; at 10 µM; hits give high values;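 also: plate controls were induced DMSO wells for no effect and uninduced yeast grown without galactose for full effect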
Screen size: about 330,000 compounds; about 1,300 (0.39%) were called active. Many of the other results were omitted from the sample, so actives are more common in it than they were.
Outcome measure: inhibition (%)
Supply the numeric figure in %, leaving out any unit text.

// recorded inhibition for O=C(Nc1ccc(S(=O)(=O)N2CCCCC2)cc1)C1CCN(C(=O)c2ccc(F)cc2)CC1 : 8.87

Recorded result, N#Cc1nc(COc2ccc(-c3ccccc3)cc2)oc1NCc1cccnc1 , inhibition: 2.98

Per the records, this compound ( CC(Sc1ccccc1F)C(=O)Nc1cccc(S(=O)(=O)N2CCOCC2)c1 (stereo not given) ) has inhibition equal to 6.56

Looking up NC(=O)N1CCCC1C(=O)Nc1ccc(Cl)c(Cl)c1 (stereo not given) , I found its inhibition recorded as -1.49

Please fill in: inhibition reported for N#Cc1nc(Cc2cccc3ccccc23)oc1NCc1ccc2c(c1)OCO2 = 2.2

---

experiment: blockers of yeast NLRP3/ASC/caspase-1 reporter – luminescence, uHTS, primary screen (AID 2825); conditions: Yeast reconstituted NLRP3/ASC/caspase-1, beta-gal luminescence, 24 h; at 10 µM; hits give high values;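 also: plate controls were induced DMSO wells for no effect and uninduced yeast grown without galactose for full effect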
The campaign covered roughly 330,000 compounds. About 1,300 (0.39%) were called active. The sample holds actives, similar compounds and a random draw of the others, so the mix is not that of the screen.
Outcome measure: inhibition

So for O=C(Nc1cc(S(=O)(=O)N2CCCCC2)ccc1Cl)C1COc2ccccc2O1 (configuration not stated) , the logged inhibition turned out to be 4.78% (inactive)

# compound Cc1ccc(C(c2sc3nc(C)nn3c2O)N2CCN(c3ccccc3)CC2)cc1 (configuration not stated) ; its inhibition = -2.77% (inactive)

Looking up Oc1ccc(Br)cc1/C=N/Nc1ccccn1 , I found its inhibition recorded as 51.7% (active)

Quick note, inhibition for CCc1cccc(OC2OC(CO)C(O)C(O)C2NC(C)=O)c1 (configuration not stated) landed at -4.24% (inactive)

The recorded inhibition for entry Oc1ccc(/C=N/Nc2ccc(C(F)(F)F)cn2)cc1O equals 11.3% (inactive)

Measured inhibition, O=C(COC(=O)c1ccccc1SCC(=O)N1CCCC1)Nc1ccccc1OC(F)F : 19.4% (inactive)

What the record says about Cc1cc(Cl)nc(NC(=O)Nc2cccc(Cl)c2)n1 : inhibition is 25.9% (inactive)

Form: compound = C=CCN1C(=O)C(O)(CC(=O)c2ccc(Cl)cc2)c2ccccc21 (configuration not stated) ; inhibition = -10.4% (inactive)

Lab note: measured inhibition of CCCCC(=O)Nc1ccccc1N1CCN(c2ccc(F)cc2)CC1 was 17.7% (inactive)

For COc1ccc(CCNS(=O)(=O)c2ccc(Cl)s2)cc1OC the compound record lists inhibition as 11% (inactive)

// inhibition lookup, compound = Fc1ccccc1-c1cc2cc3c(cc2cn1)OCO3 , result: 57.2% (active)

Noted for COc1cc(CNCc2ccc3c(c2)OCO3)c([N+](=O)[O-])cc1OC : its inhibition reads 20.4% (inactive)

Entry COc1ccc(NS(=O)(=O)c2cc3c(cc2C)N(C(C)=O)CCO3)cc1 ; inhibition = 25.6% (inactive)

Query O=C(c1ccncc1)N1CCN(S(=O)(=O)c2cc(C(F)(F)F)cc(C(F)(F)F)c2)CC1 yields inhibition of 6.83% (inactive)

According to the records, this compound CC[C@@H](C)[C@H](NC(=O)CCc1c(C)c2cc3c4c(oc3c(C)c2oc1=O)CCCC4)C(=O)O displays inhibition of 17.7% (inactive)

inhibition for Fc1ccc2cnc(-c3ccccc3)cc2c1 is 34.3% (inactive)

Entry CC(C)n1c(CN2CCN(Cc3ccccc3)CC2)nc2ccccc21 , inhibition reported as 18.2% (inactive)

C=CCC1(CC=C)CCCN1C(=O)CC1C(=O)NCCN1Cc1ccccc1OC (configuration not stated) has a reported inhibition of 4.65% (inactive)

The compound identified as O=C(CC(Cc1ccccc1)C(=O)O)NCCc1ccc2c(c1)OCO2 (configuration not stated) registered its inhibition at 20.5% (inactive)

Record Cc1ccc(-c2nn(C(C)(C)C)c3ncnc(N)c23)cc1 . Reported inhibition: 90.7% (active)

The recorded inhibition for entry COc1cc(C(=O)OCc2cc(=O)n3ccsc3n2)ccc1OC(C)C equals 16.3% (inactive)

Given item COc1cc(N2C(=O)c3ccccc3C2=O)c(Cl)cc1C(=O)OCC(=O)N1CCOCC1 , the value recorded as its inhibition is -0.245% (inactive)

The recorded inhibition for entry CC1(C)CCSC(/C=C/c2ccccc2)=N1 equals 85.7% (active)

Form: compound = CC(C)Cc1cc(C(=O)Nc2cc(Br)ccc2O)no1 ; inhibition = 29.5% (inactive)

The compound listed as CCOc1ccc(C(O)Cc2nc3ccccc3n2C)cc1 (configuration not stated) shows inhibition equal to 32.1% (inactive)

// inhibition value for Cc1c(C(=O)Nc2ccccn2)oc2ccc(Br)cc12 : 28.4% (inactive)

The reported inhibition of the compound O=C(Cn1ccc2cc(S(=O)(=O)N3CCCC3)ccc21)NCc1ccccc1 was 11.6% (inactive)

inhibition in this record for CCCN(CC1CC1)C(=S)NC(=O)c1ccccc1Br : 50.5% (active)

In plain terms, O=C(Oc1c(-c2ccco2)oc2ccccc2c1=O)c1cccnc1 has a documented inhibition of 54.3% (active)

Lab note: COCCCNC(=O)/C=C/c1ccc(OCc2c(F)cccc2Cl)cc1 gave inhibition of 50.9% (active)

Form: compound = CC(NC(=O)c1cc2cc(Cl)ccc2oc1=N)c1ccccc1 (configuration not stated) ; inhibition = 14.4% (inactive)

Sample CCCCCCCCCCCC(=O)O ; inhibition observed: 12.3% (inactive)

Record COCCNC(=O)c1ccc2nc(Cc3ccc(OC)c(OC)c3)oc2c1 , field inhibition: 20.9% (inactive)

# inhibition of O=C(OCc1cc2ccccc2[nH]c1=O)c1cccnc1 = 11.2% (inactive)

// COc1ccc(CC(=O)Nc2sc(Cc3ccccc3)c(C)c2C(N)=O)cc1 : inhibition value = 25.1% (inactive)

Reported inhibition ( C=C(C)c1cccc(C(C)(C)NC(=O)NCCN(CC)CC)c1 ) = 5.58% (inactive)

# inhibition (compound: COc1ccc(Oc2coc3cc(OC(=O)c4cncc(Br)c4)ccc3c2=O)cc1 ) is 2.36% (inactive)

Recorded result, Cc1cc(C)nc(NC(=O)Nc2ccccc2C(F)(F)F)n1 , inhibition: 54.9% (active)

Lookup result for O=C(/C=C/c1ccc(OCc2c(F)cccc2Cl)cc1)N1CCOCC1 ; measured inhibition: 28.2% (inactive)

# inhibition (compound: O=[N+]([O-])/C=C/c1ccc2c(ccn2Cc2ccccc2)c1 ) is 92.3% (active)

Entry C/C(=N/OC(=O)c1ccc(Br)cc1)c1ccc(C)cc1 — recorded inhibition = 25.5% (inactive)

// inhibition value for CC(NC(=O)c1ccco1)C(=O)Nc1nc(-c2ccccn2)cs1 (configuration not stated) : 6.56% (inactive)

Looking up CN(c1ccccc1)S(=O)(=O)c1ccc2[nH]c(=O)[nH]c2c1 , I see its inhibition listed as 25.4% (inactive)

Measured inhibition, CCCCCCC12CCC(C(=O)O)(CC1)CC2 : 54.3% (active)

Entry under test: O=c1[nH]oc(O)c1-c1ncc(C(F)(F)F)cc1Cl . Its inhibition was 6.26% (inactive)

The reported value for CCc1ccc(NC(=O)NC(C)c2ccc3c(c2)OCO3)cc1 (configuration not stated) in terms of inhibition is 24.3% (inactive)

According to the records, this compound COCCNc1cc(-c2ccccc2)nc2cc(-c3cccc(F)c3)nn12 displays inhibition of 32.2% (inactive)
